- target or test system: Human BCL-XL protein (N-terminal HiBiT tagged BCL-XL in HT1080 cells) (Homo sapiens, UniProt Q07817)
- Construct: expressed in transfected cells; host or cells: HT-1080 (ATCC CCL-121), stably transduced with lentivirus pLV-UBC-N-HiBiT-BCL-XL-PGK-puro and selected with puromycin
- Sequence (Q07817 whole entry): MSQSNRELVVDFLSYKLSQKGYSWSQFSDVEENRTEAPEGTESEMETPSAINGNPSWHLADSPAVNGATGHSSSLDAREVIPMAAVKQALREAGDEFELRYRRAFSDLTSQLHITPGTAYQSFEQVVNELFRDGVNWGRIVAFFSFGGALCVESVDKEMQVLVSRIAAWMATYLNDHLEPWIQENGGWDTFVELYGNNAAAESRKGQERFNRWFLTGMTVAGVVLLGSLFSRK
- experiment summary: HiBiT based degradation assay
- Type: cell-based
- settings: BCL-XL degradation; HT1080 cells expressing HiBiT-BCL-XL; 24 h; read-out: EC50 (24 h)
Could you please report measured DC50 for the items listed next?

Give DC50 for each listed item.
1. Cc1c(Oc2ccc(CC(F)(F)CN3CCN(c4cccc5c(C6CCC(=O)NC6=O)nn(C)c45)CC3)cc2)cccc1-c1ccc(N2CCc3cccc(C(=O)Nc4nc5ccccc5s4)c3C2)nc1C(=O)O (centres unmarked)
2. Cc1c(O[C@H]2CC[C@H](CCCCN3CC[C@@H](c4cccc5c(C6CCC(=O)NC6=O)nn(C)c45)C3)CC2)cccc1-c1ccc(N2CCc3cccc(C(=O)Nc4nc5ccccc5s4)c3C2)nc1C(=O)O (single isomer, unassigned) [Compound 321b]

[A]
1 to 10 µM
< 0.1 µM

###

- target or test system: Human BCL-XL protein (N-terminal HiBiT tagged BCL-XL in HT1080 cells) (Homo sapiens, UniProt Q07817)
- Construct: expressed in transfected cells; host or cells: HT-1080 (ATCC CCL-121), stably transduced with lentivirus pLV-UBC-N-HiBiT-BCL-XL-PGK-puro and selected with puromycin
- experiment summary: HiBiT based degradation assay
- Format: cell-based
- settings: BCL-XL degradation normalized with DMSO control; HT1080 cells expressing HiBiT-BCL-XL; 24 h
value type: Ymin (24 h)

molecule	observed
Cc1c(OCCCC2CCN(CC(=O)Nc3ccc4c(C5CCC(=O)NC5=O)nn(C)c4c3F)CC2)cccc1-c1ccc(N2CCc3cccc(C(=O)Nc4nc5ccccc5s4)c3C2)nc1C(=O)O (stereo not shown)	B (50% ≤ Ymin < 70%)
Cc1c(OCCN2CCN(CC3CCN(c4cccc5c(C6CCC(=O)NC6=O)nn(C)c45)CC3)CC2)cccc1-c1ccc(N2CCc3cccc(C(=O)Nc4nc5ccccc5s4)c3C2)nc1C(=O)O (stereo not shown)	B (50% ≤ Ymin < 70%)
Cc1c(O[C@H]2CC[C@H](CCCN3CCN(c4ccc5c(C6CCC(=O)NC6=O)nn(C)c5c4C)CC3)CC2)cccc1-c1ccc(N2CCc3cccc(C(=O)Nc4nc5ccccc5s4)c3C2)nc1C(=O)O (stereo partly shown) [Compound 334a]	A (Ymin < 50%)
Cn1nc(C2CCC(=O)NC2=O)c2ccc(N3CCN(CCCC[C@H]4CC[C@H](Oc5cccc(-c6ccc(N7CCc8cccc(C(=O)Nc9nc%10ccccc%10s9)c8C7)nc6C(=O)O)c5)CC4)CC3)cc21 (stereo partly shown) [Compound 329a]	A (Ymin < 50%)
Cc1c(OCCCc2ccc(CC(=O)Nc3ccc4c(C5CCC(=O)NC5=O)nn(C)c4c3)nc2)cccc1-c1ccc(N2CCc3cccc(C(=O)Nc4nc5ccccc5s4)c3C2)nc1C(=O)O (stereo not shown)	B (50% ≤ Ymin < 70%)
Cc1c(OCCCC2CCN(CCN3CCC(c4cccc5c(C6CCC(=O)NC6=O)nn(C)c45)CC3)CC2)cccc1-c1ccc(N2CCc3cccc(C(=O)Nc4nc5ccccc5s4)c3C2)nc1C(=O)O (stereo not shown)	A (Ymin < 50%)
Cc1c(O[C@H]2CC[C@H](CCCN3CCC(Oc4cccc5c(C6CCC(=O)NC6=O)nn(C)c45)CC3)CC2)cccc1-c1ccc(N2CCc3cccc(C(=O)Nc4nc5ccccc5s4)c3C2)nc1C(=O)O (stereo partly shown) [Compound 338a]	A (Ymin < 50%)
Cc1c(O[C@H]2CC[C@H](CCC(=O)N3CCC(c4cccc5c(C6CCC(=O)NC6=O)nn(C)c45)CC3)CC2)cccc1-c1ccc(N2CCc3cccc(C(=O)Nc4nc5ccccc5s4)c3C2)nc1C(=O)O (stereo partly shown) [Compound 253a]	B (50% ≤ Ymin < 70%)

Each molecule below has a recorded value; state its Ymin (24 h).
1. Cc1c(OCCCN2CCN(CC(=O)Nc3ccc4c(C5CCC(=O)NC5=O)nn(C)c4c3)C[C@H]2C(F)(F)F)cccc1-c1ccc(N2CCc3cccc(C(=O)Nc4nc5ccccc5s4)c3C2)nc1C(=O)O (stereo partly shown) [Compound 245b]
2. Cc1c(Oc2cccc(CCCN3CCN(c4ccc5c(C6CCC(=O)NC6=O)nn(C)c5c4)CC3)c2)cccc1-c1ccc(N2CCc3cccc(C(=O)Nc4nc5ccccc5s4)c3C2)nc1C(=O)O (stereo not shown)
3. Cc1c(OCCC2CC3(C2)CN(CC(=O)Nc2ccc4c(C5CCC(=O)NC5=O)nn(C)c4c2)C3)cccc1-c1ccc(N2CCc3cccc(C(=O)Nc4nc5ccccc5s4)c3C2)nc1C(=O)O (stereo not shown)
4. Cc1c(O[C@H]2CC[C@@H](CCC(=O)N3CCN(c4cccc5c(C6CCC(=O)NC6=O)nn(C)c45)CC3)CC2)cccc1-c1ccc(N2CCc3cccc(C(=O)Nc4nc5ccccc5s4)c3C2)nc1C(=O)O (stereo partly shown) [Compound 146b]
5. Cc1c(OCCOC2CCN(CC(=O)Nc3ccc4c(C5CCC(=O)NC5=O)nn(C)c4c3)CC2)cccc1-c1ccc(N2CCc3cccc(C(=O)Nc4nc5ccccc5s4)c3C2)nc1C(=O)O (stereo not shown)

[A]
B (50% ≤ Ymin < 70%)
B (50% ≤ Ymin < 70%)
A (Ymin < 50%)
B (50% ≤ Ymin < 70%)
B (50% ≤ Ymin < 70%)

Could you tell me Ymin (24 h) for each of these molecules? They are listed below.
1. Cc1c(OCCC2CCN(CCCC3CCN(c4cccc5c(C6CCC(=O)NC6=O)nn(C)c45)CC3)CC2)cccc1-c1ccc(N2CCc3cccc(C(=O)Nc4nc5ccccc5s4)c3C2)nc1C(=O)O (stereo not shown)
2. Cc1cc(OCC[C@H](C)C2CCN(CC(=O)Nc3ccc4c(C5CCC(=O)NC5=O)nn(C)c4c3)CC2)ccc1-c1ccc(N2CCc3cccc(C(=O)Nc4nc5ccccc5s4)c3C2)nc1C(=O)O (single isomer, unassigned) [Compound 266b]
3. Cc1c(OCCCC2CCN(CCC3CCN(c4ccc5c(C6CCC(=O)NC6=O)nn(C)c5c4)CC3)CC2)cccc1-c1ccc(N2CCc3cccc(C(=O)Nc4nc5ccccc5s4)c3C2)nc1C(=O)O (stereo not shown)

[A]
1. A (Ymin < 50%)
2. A (Ymin < 50%)
3. A (Ymin < 50%)

// for each molecule below, give its Ymin (24 h)
1. Cc1c(OCC(F)(F)CC2CCN(CC(=O)Nc3cccc4c(C5CCC(=O)NC5=O)nn(C)c34)CC2)cccc1-c1ccc(N2CCc3cccc(C(=O)Nc4nc5ccccc5s4)c3C2)nc1C(=O)O (stereo not shown)
2. Cc1c(OCC[C@H]2CCC3(CCN(CC(=O)Nc4ccc5c(C6CCC(=O)NC6=O)nn(C)c5c4)CC3)C2)cccc1-c1ccc(N2CCc3cccc(C(=O)Nc4nc5ccccc5s4)c3C2)nc1C(=O)O (stereo in doubt) [Compound 272a]

[A]
B (50% ≤ Ymin < 70%)
A (Ymin < 50%)

Data point: Cc1c(OCCCN2CCC(CC(=O)Nc3cccc4c(C5CCC(=O)NC5=O)nn(C)c34)CC2)cccc1-c1ccc(N2CCc3cccc(C(=O)Nc4nc5ccccc5s4)c3C2)nc1C(=O)O (stereo not shown) ; Ymin (24 h) = B (50% ≤ Ymin < 70%)
